Values from the RNAGym collection of RNA variant scans (doi:10.1093/nar/gkz1192)

B1: CPEB3 Ribozyme (parent)
chain: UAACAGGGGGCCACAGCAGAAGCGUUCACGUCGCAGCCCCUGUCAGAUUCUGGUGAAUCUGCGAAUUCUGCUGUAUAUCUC

# Variants of: B1
# PROCEDURE_DETAILS: self-cleavage, relative activity (ratio to wild type); higher = more cleavage; in vitro, sequencing
Recorded self-cleavage, one value per entry.

> print(dat)
   alteration     observable  result
1   C17G U25C  self-cleavage    0.11
2        G53C  self-cleavage    1.13
3   G73C U80C  self-cleavage    1.29
4   U60G U72A  self-cleavage    0.22
5   A57G C71U  self-cleavage    0.32

Endpoint output: self-cleavage of G22A U49C . Value?
0.11
